Reported growth values follow for various molecules
tested on: CCRF-CEM leukemia; assay: NCI-60 one-dose screen, 48 h (100 = growth as untreated, 0 = no growth, -100 = all killed); details: 10 µM unless noted
The panel holds about 83,000 compounds, 20% with a hit somewhere; the sample as a whole holds those more often.
METRIC: growth (%)

* O=C1NC(=O)C(=Cc2cc(-c3ccc(Cl)cc3)n(-c3ccccc3)n2)C(=O)N1 | 92.7
* CS(=O)(=O)c1cccc(Nc2ncc3cc(-c4ccccc4Cl)ccc3n2)c1 | 9.21
* C#CCOc1cccc(-c2ncnc3cc(NC(=O)CCl)ccc23)c1 | -15.6
* O=c1n(C2OC(CO)C(O)C2O)ccc2nccn12 (stereo unspecified) | 99.5
* CCCCCCC/C=N/NC(=O)c1ccc(-n2cc(-c3ccccc3)nn2)cc1 | 86.3
* c1ccc2cc(Cn3cc[n+](Cc4ccc5ccccc5c4)c3)ccc2c1 | 21.7
* O=C(CSc1nc(-c2ccccc2)cn1-c1ccc(Cl)cc1)c1ccc([N+](=O)[O-])cc1 | 83.2
* CCN=c1sc2c(n1NC(=O)c1cc3ccc1CCc1ccc(cc1)CC3)C(=O)c1ccccc1C2=O | -16
* Cc1c(N2CCCCC2)[nH]c2ccccc12 | 55.1
* COc1ccc(Cn2cc3c(c2)-c2oncc2CC3)cc1 | 35.2
* COc1ccc(S(=O)(=O)NC2c3ccccc3CC2O)cc1OC (stereo unspecified) | 101
